- tested-target: WEE1 (Homo sapiens, UniProt P30291+Q96SW2)
- Construct: C-terminal ePL-tagged (DiscoverX, Fremont, CA) full-length WEE1 expression construct; expressed in transfected cells; host or cells: LentiX-HEK293T (Invitrogen), lentiviral transduction; co-expressing GSPT1-GN (G576N, lacking the first 158 amino acids)
- assay-summary: WEE1-ePL degradation assay (LentiX-WEE1-ePL-GSPT1-ND cells, InCELL Hunter luminescence, 4 h)
- Type: cell-based
- experimental-parameters: 293T-LentiX WEE1-ePL cells, lower limit of the fit (0 = luciferase inhibitor, Ymax = DMSO control)
test-readout: 293T-LentiX WEE1-ePL Degradation 4 hr (Ymin)

O=C1CCC(N2Cc3cc(O[C@H]4CCN(Cc5cncc6c5CCCO6)C4)ccc3C2=O)C(=O)N1 (stereo partly shown) = 29.38
O=C1CCC(N2Cc3cc(O[C@H]4CCN(Cc5ccc6nc(N7CC(O)C7)ccc6c5)C4)ccc3C2=O)C(=O)N1 (stereo partly shown) = 34
O=C1CCC(N2Cc3cc(O[C@H]4CCN(Cc5ccc6nc(N7CC[C@@]78CCOC8)ccc6c5)C4)ccc3C2=O)C(=O)N1 (stereo partly shown) = 40
CO[C@H]1CC[C@@H](Nc2ccc3cc(CN4CC[C@H](Oc5ccc6c(c5)CN(C5CCC(=O)NC5=O)C6=O)C4)ccc3n2)CC1 (stereo partly shown) = 29.5

---

- tested-target: WEE1 (Homo sapiens, UniProt P30291+Q96SW2)
- Construct: C-terminal ePL-tagged (DiscoverX, Fremont, CA) full-length WEE1 expression construct; expressed in transfected cells; host or cells: LentiX-HEK293T (Invitrogen), lentiviral transduction; co-expressing GSPT1-GN (G576N, lacking the first 158 amino acids)
- assay-summary: WEE1-ePL degradation assay (LentiX-WEE1-ePL-GSPT1-ND cells, InCELL Hunter luminescence, 4 h)
- Format: cell-based
- experimental-parameters: 293T-LentiX WEE1-ePL cells, read-out: 293T-LentiX WEE1-ePL Degradation 4 hr (EC50)
test-readout: DC50 (nM)

For orientation, consider the following solved cases.
Cc1cc(Cl)c2cc(CN3CC[C@H](Oc4ccc5c(c4)CN(C4CCC(=O)NC4=O)C5=O)C3)ccc2n1 (stereo partly shown) = 4.29
CO[C@@H]1CCCN(c2ccc3cc(CN4CC[C@H](Oc5ccc6c(c5)CN(C5CCC(=O)NC5=O)C6=O)C4)ccc3n2)C1 (stereo partly shown) = 4.32
O=C1CCC(N2Cc3cc(O[C@H]4CCN(Cc5ccc6nc(N7CC8(CCOCC8)C7)ccc6c5)C4)ccc3C2=O)C(=O)N1 (stereo partly shown) = 1.94
N#Cc1ccc(CN2CC[C@H](Oc3ccc4c(c3)CN(C3CCC(=O)NC3=O)C4=O)C2)nc1 (stereo partly shown) = 61
Cc1ccc2cc(CN3CC[C@H](Oc4ccc5c(c4)CN(C4CCC(=O)NC4=O)C5=O)C3)ccc2n1 (stereo partly shown) = 3.81

1 = COC[C@@H]1CC[C@@H](c2ccc3cc(CN4CC[C@H](Oc5ccc6c(c5)CN(C5CCC(=O)NC5=O)C6=O)C4)ccc3n2)C1 (stereo partly shown)
2 = O=C1CCC(N2Cc3cc(O[C@H]4CCN(Cc5cnc6cccc(F)c6c5)C4)ccc3C2=O)C(=O)N1 (stereo partly shown)
3 = O=C1CCC(N2Cc3cc(O[C@H]4CCN(Cc5cnc6cccnc6c5)C4)ccc3C2=O)C(=O)N1 (stereo partly shown)
4 = O=C1CCC(N2Cc3cc(O[C@H]4CCN(Cc5cnc6c(c5)COCC6)C4)ccc3C2=O)C(=O)N1 (stereo partly shown)
5 = Cc1cccc2cc(CN3CC[C@H](Oc4ccc5c(c4)CN(C4CCC(=O)NC4=O)C5=O)C3)ncc12 (stereo partly shown)
Problem: Parameters: sort_field (DC50), sort_dir (desc). In your reply, arrange the labels in the requested order.
Result: 3, 4, 2, 5, 1

A = O=C1CCC(N2Cc3cc(O[C@H]4CCN(Cc5ccc6nc(N7CCCC78CCOCC8)ccc6c5)C4)ccc3C2=O)C(=O)N1 (stereo partly shown)
B = CC#Cc1ccc2cc(CN3CC[C@H](Oc4ccc5c(c4)CN(C4CCC(=O)NC4=O)C5=O)C3)ccc2n1 (stereo partly shown)
Problem: Which has the higher DC50, A or B ? Reply briefly: the label of your chosen item.
Result: A
(A: 11.3 nM, B: 3.18 nM)

A = O=C1CCC(N2Cc3cc(O[C@@H]4CN(Cc5ccc6nc([C@H]7CCOC7)ccc6c5)CC4(F)F)ccc3C2=O)C(=O)N1 (stereo partly shown)
B = O=C1CC[C@H](N2Cc3cc(O[C@H]4CCN(Cc5ccc6nc(C7CCOCC7)ncc6c5)C4)ccc3C2=O)C(=O)N1
C = O=C1CCC(N2Cc3cc(O[C@H]4CCN(Cc5cc6ccc(N7CCOCC7)cc6cn5)C4)ccc3C2=O)C(=O)N1 (stereo partly shown)
Problem: Sort entries by DC50 from minimum to maximum value. Please, when replying, give the labels in the order that was requested.
Result: C, A, B
(C: 3.82 nM, A: 8.49 nM, B: 75 nM)

Data credit: patent US20240067632A1
